# System: RPMI-8226 leukemia
# Test description: NCI-60 one-dose screen, 48 h
# Test settings: 10 µM unless noted
The panel holds about 83,000 compounds, 20% with a hit somewhere; the sample as a whole holds those more often. Activity calls are given as the source filed them. The calls were made as follows: active = growth percent below 10; inactive = the rest.
Valid outcomes are listed here; reply with one: true for active, false for inactive

Previously resolved entries follow.
C=C(C)[C@@H]1CC[C@]2(C(=O)O)CC[C@]3(C)[C@H](CC[C@@H]4[C@@]5(C)C/C(=C/c6ccco6)C(=O)C(C)(C)[C@@H]5CC[C@]43C)[C@@H]12 :: true
CC(C)c1ccc(C(=O)Nc2sc3c(c2C#N)CCC(=O)C3)cc1 :: true

Check the results log: what was the call for "CCN1c2ccccc2C(Cl)(c2ccc(N(C)C)cc2)c2ccccc21" ?
true

Check the results log: what was the call for "C[C@@H]1C[C@H]2C(=O)O[C@@H](C)[C@H](NC(=O)[C@H](Cc3cc(F)cc(F)c3)NC(=O)Nc3ccc(C4CC4)cc3F)C(=O)N3CCC[C@H]3C(=O)N3CCCC[C@H]3C(=O)N[C@@H](C)C(=O)N2C1" ?
false

Check the results log: what was the call for CCc1ccc(-c2ccc(COc3ccc(CC4SC(=O)NC4=O)cc3)cc2)cc1 (centres undefined) ?
false

Check the results log: what was the call for "COc1cc(/C=C/C(=O)/C=C/c2ccc(-n3ccnc3)cc2)ccc1O" ?
true

Check the results log: what was the call for CC1Cc2c(Cl)ncnc2N(C)c2ccc(O)cc21 (centres undefined) ?
false

Check the results log: what was the call for Cc1ccc(S(=O)(=O)N/N=C2\CC3CCC2(C)C3(C)C)cc1 (centres undefined) ?
false

Check the results log: what was the call for "COCCCNc1nc(NC(=O)c2cc(OC)cc(OC)c2)cc(-c2cccnc2)n1" ?
false

Check the results log: what was the call for CCN(CCNc1ccc(C)c2sc3cc(Cl)ccc3c(=O)c12)CC(C)O (centres undefined) ?
true

Check the results log: what was the call for "COc1ccc(C(=O)c2nccc3cc(OC)c(OC)cc23)cc1OC" ?
false

Check the results log: what was the call for "COc1ccc(OC)c([N+](=O)[O-])c1C(=O)CNC(C)=O" ?
false

Check the results log: what was the call for CCN(CC)CC(C)Nc1ccc(C)c2sc3ccccc3c(=O)c12 (centres undefined) ?
false

Check the results log: what was the call for "Clc1ccc(/C=N/Nc2nc3ccccc3s2)c(Cl)c1" ?
false
